Data credit: PubChem BioAssay

viability increase values by entry
Assay: viability gain of MRP-1-high H69AR cells under doxorubicin, pilot screen, MRP-1 activator project, CellTiter-Glo, duplicate (AID 807);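 note: compound pretreatment 18-22 h then 72 h combined with doxorubicin; 0% = doxorubicin alone and 100% = vehicle without doxorubicin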
Conditions: H69AR viability with doxorubicin, CellTiter-Glo luminescence; at 10 µM; stronger effect = higher value
Could you give me the number in %? Just the number is fine.

These solved cases illustrate the format of a correct answer.
molecule | measured-parameter | assay-result
Cc1c(C(=O)NCc2cccnc2)sc2nc(-c3ccc(F)cc3)cn12 | viability increase | 0.45
CC(=O)N1CCc2c(sc(NC(=O)C3CC3)c2-c2nc3ccccc3s2)C1 | viability increase | -3.03
Cc1cccc(-n2c(CNC(=O)c3ccccc3)nnc2SCC(=O)Nc2nccs2)c1 | viability increase | -3.48
Cc1cccc(-n2c(Cc3cc(=O)[nH]c(=O)[nH]3)nnc2SC(C)C)c1 | viability increase | -1.84
CC(NS(C)(=O)=O)C(c1cccs1)N1CCN(Cc2ccccc2)CC1 (stereo unspecified) | viability increase | -1.92
COc1cc(OC)c(NC(=O)c2ccc(Br)o2)cc1Cl | viability increase | -7.05
CCCC(=O)NCCCc1nc2ccccc2n1CCC | viability increase | -1.65
Clc1cccc(CSc2nnc([C@@H]3CCCN3)o2)c1 | viability increase | -3.16
Cc1cccc(-n2ncc3c(NCc4ccccc4)ncnc32)c1 | viability increase | -5.25
CCOC(=O)Cn1c(C)cc(=O)c2cccc(C)c21 | viability increase | 0.49

Prompt: # viability increase lookup, item `CCCCOC(=O)Nc1ccc(N2CCOCC2)cc1`
Completion: -0.38

Prompt: Would you kindly repeat that for OC(COc1ccc2ccccc2c1)CN1CCN(c2ccc(F)cc2)CC1 (stereo unspecified) ?
Completion: -4.36

Prompt: What would you report for `Cc1cccc(-n2c(Cc3cc(=O)[nH]c(=O)[nH]3)nnc2SCC(=O)N2CCCCC2)c1` ?
Completion: -0.52

Prompt: Same question, `O=C(CSc1nc2c(c(=O)n1-c1ccc(Cl)cc1)SCC2)N1CCOCC1` this time
Completion: -2.79

Prompt: For `COc1ccc(C)cc1NC(=O)CSc1nnc(-c2ccc(OC)c(OC)c2)n1N` then?
Completion: -1.57

====

Experiment: SK-BR-3 cell growth inhibitors, pilot screen, 24 h, human (AID 572);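 note: compound exposure lasted between 18 and 24 h rather than exactly 24 h; 100% = carrier-treated control wells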
Conditions: SK-BR-3 viability, CellTiter-Glo luminescence, at 10 µM, stronger effect = lower value
viability reference
The reply should be a number in %, with the unit left off.

compound | viability, %
CCOC(=O)N1CCN(C(=O)c2ccc3c(=O)n(CCc4ccccc4)c(=O)[nH]c3c2)CC1 | 98.5
O=C(CCS(=O)(=O)c1cc(Br)cc2c1N(C(=O)C1CC1)CC2)NCC1CCCO1 (stereo not given) | 122
CCN(CC)c1ccc(NC(=O)c2cncc(Br)c2)cc1 | 97.5
COC(=O)CCC(=O)Nc1cccc(Br)c1 | 128
COC(=O)CCc1c(C)c(C#N)c2nc3ccccc3n2c1N1CCCC1 | 100
CCOC(=O)c1ccccc1NC(=O)Cn1cnc2c(cnn2-c2ccc(OC)cc2)c1=O | 89.5
COc1ccc(-c2nnc(SCC(=O)NC(=O)NCc3ccco3)o2)cc1 | 102
CCOc1cc(C(=O)NCc2nnc(SCC(=O)OC)n2C)cc(OCC)c1OCC | 98

Prompt: Look up viability for this compound: `Cc1cc(C)n2cc(CSCc3ccco3)nc2n1`
Completion: 97

Prompt: # iterate: `COc1cc(S(=O)(=O)N2CCOCC2)ccc1NC(=O)COC(=O)C12CC3CC(CC(C3)C1)C2`
Completion: 92

Prompt: Same lookup for `Cc1ccc(C)n1NC(=O)c1ccco1` , please.
Completion: 90

Prompt: And the next one, `CC(=O)N1CCC2(CC1)CC(=O)c1cc(OCC(=O)NCc3ccc(C)cc3)ccc1O2` ?
Completion: 97

Prompt: Try this compound too: `O=C(c1ccccc1Oc1nnnn1-c1ccccc1)N1CCOCC1`
Completion: 89.5

Prompt: Same read-out for `CCN(CC)CCCNC(=O)c1nn(-c2ccc(OC)cc2OC)c(=O)c2ccccc12` ?
Completion: 97

Prompt: `CCOc1nc2ccccc2nc1NS(=O)(=O)c1ccccc1` , same question.
Completion: 83

Prompt: Another compound to check: `CCOc1ccc(Cl)cc1S(=O)(=O)N1CCCC1`
Completion: 100

Prompt: Again, but for `COc1ccc(NC(=O)CCS(=O)(=O)c2ccc(OC)cc2)cc1`
Completion: 96

Prompt: Same thing, different compound: `CC(C)Cn1c(=O)c(C2=NS(=O)(=O)c3ccccc3N2)c(O)c2ccccc21`
Completion: 118

Prompt: Entry `CC(C)CCNC(=O)NC(=O)CSc1nnc(COc2ccccc2Cl)o1` please
Completion: 99

Prompt: What do we get for COC(=O)Nc1sc2c(c1C(=O)N1CCOCC1)CCC(C)C2 (stereo not given) ?
Completion: 89.5

Prompt: CC(C)COC(=O)NCC12C=CC(O1)C1C(=O)N(c3ccc(Cl)cc3)C(=O)C12 (stereo not given) ?
Completion: 96

Prompt: Consider next the compound `Cc1ccc(-c2noc(CCC(=O)NCCc3ccccc3Cl)n2)cc1` in the same way.
Completion: 77.5

Prompt: Same again, this time with `Cc1coc2cc3oc(=O)c4c(c3cc12)CCC4`
Completion: 111

Prompt: Param item: CCOC(=O)C(NC(C)=O)(NS(=O)(=O)c1ccccc1)C(F)(F)F (stereo not given)
Completion: 122

====

Test: inhibitors of the yeast RAM network, pilot screen, dse1pr::URA3 reporter, 5-FOA selection (AID 869);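 note: 0% = DMSO wells with no growth and 100% = 10 µM 1-NA-PP1 with full growth; RAM network block rescues cells from 5-FOA so hits raise OD615 growth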
Settings: S. cerevisiae dse1pr::URA3 5-FOA growth, OD615, 2 d; at 10 µM; stronger effect = higher value; strain carries analog-sensitive mutant Cbk1 kinase
Readings of inhibition for the listed molecules
Numbers only; they are read as %.

Please review the following examples before continuing.
molecule | endpoint-unit | inhibition
O=C(Cn1nnc(-c2ccccc2NC(=O)c2ccccc2F)n1)NCc1ccco1 | % | 1.39
COc1cc2c(cc1OC)C(c1cccs1)NCC2 (centres undefined) | % | 0.41
O=S(=O)(c1cccs1)n1nnc2ccccc21 | % | 1.33
Cc1nnc(SCc2ccc(Cl)cc2Cl)[nH]c1=O | % | 0.42
O=C(CSc1nnc(COc2ccccc2)o1)Nc1nccs1 | % | 1.78

Prompt: // query inhibition value for entry `CCOC(=O)Cn1c(C)cc(=O)c2cccc(C)c21`
Completion: 0.035

Prompt: Next: `COCCNS(=O)(=O)c1ccc2c(c1)C(=O)c1cc(S(=O)(=O)NCCOC)ccc1-2`
Completion: 2.15

====

Assay: RAM signaling pathway blockade in yeast – S. cerevisiae, Pdr1DBD-CYC8 efflux-inhibited sensitized strain, primary screen (AID 1298);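 note: 0% = DMSO untreated cells without growth and 100% = 10 µM 1-NA-PP1 full growth; higher means more yeast growth rescued from 5-FOA killing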
Conditions: S. cerevisiae cbk1-as DSE1-URA3 strain, 5-FOA growth OD615, 2 d; at 50 µM; stronger effect = higher value
Parameter RAM network inhibition: see the listing below.
Report only the number, with the unit % understood.

compound | assay-result
CC(C)CCNC(=O)C1C2C=CC3(CN(Cc4ccccc4Cl)C(=O)C13)O2 (stereo not drawn) | 8.03
CCCn1c(C(C)NC(=O)c2ccccc2)nc2ccccc21 (stereo not drawn) | 5.38
CCN(CC)c1ccc(NC(=O)c2ccc(NC(=O)C3CCCO3)cc2)c(C)c1 (stereo not drawn) | 6.65
CCOC(=O)c1cnc2ccc(Br)cc2c1NCC(C)O (stereo not drawn) | 2.79
COc1cccc(NC(=O)CSc2ncnc3c2oc2ccccc23)c1 | 4.42

Prompt: Reported RAM network inhibition, compound `Cc1cc(Nc2ccc(F)cc2Cl)n2ncnc2n1` : ____
Completion: 1.89

Prompt: Would you mind doing `CC(C)(Oc1ccc(Cl)cc1)C(=O)Nc1ncccn1` as well?
Completion: 2.05

Prompt: `Cc1ccc(Cl)cc1N(CC(=O)N1CCCCCC1)S(C)(=O)=O` ?
Completion: 1.37

====

Assay: HUVEC growth inhibition – cell-based, human, primary screen (AID 575);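 note: 100% = median of untreated cell wells with 0.1% DMSO on each plate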
Details: HUVEC proliferation, CellTiter-Glo luminescence, 72 h; at 10 µM; stronger effect = lower value
# viability values compiled below
Kindly provide the numeric value in % only, without the unit symbol.

These recorded examples may help you get a feel for the data.
compound | viability [%]
O=C1CC(c2ccc(F)c(Br)c2)C2=C(CCCC2=O)N1 (stereo unspecified) | 84.6
O=C1CSC(c2cn(-c3ccccc3)nc2-c2ccccc2)N1Cc1ccco1 (stereo unspecified) | 63.1
CC1/C(=N/O)C(CN(C)C)C2CC1C2(C)C (stereo unspecified) | 99.3

Prompt: I'd like to know its viability. The compound in question is `CC(C)c1nnc(SCC(=O)NCc2ccco2)n1C`
Completion: 94.7

Prompt: Let us now turn to c1ccc(CC2CCN(C(c3cccs3)c3nnnn3C3CCCC3)CC2)cc1 (stereo unspecified)
Completion: 91.9

Prompt: Param item: CC1NC(=O)NC1CCCCCC(=O)NCCc1ccccc1 (stereo unspecified)
Completion: 90.4

====

Assay: OD615 S. cerevisiae growth inhibition, permissive medium, pilot counter-assay, permissive growth control for S. cerevisiae lifespan shortening project (AID 705)
Settings: OD615, 24 h, at 10 µM, stronger effect = higher value
Catalogue of growth inhibition readings, one per entry.
Entry rule: numbers only, all in %.

Prompt: Fill in the blank: the reported growth inhibition of `Cc1cc(C(=O)N2CCN(c3ccccn3)CC2)no1` is ____.
Completion: -1.03

Prompt: Please answer likewise for `COc1ccc(C(=O)OCCN2C(=O)c3ccccc3C2=O)cc1OC`
Completion: 6.76

Prompt: Another compound: `O=C(O)c1ccc(F)c(S(=O)(=O)Nc2ccccc2)c1`
Completion: -3.28

Prompt: Ok, now CC(C)N1C(=O)C2C(c3ccccc3O)NC(C)(C(=O)O)C2C1=O (centres undefined)
Completion: 7.56
